molecular target: human Y4 receptor (human, UniProt P50391); assay: 125I-PYY displacement, COS-7 membranes
pKi: −log10 of the molar value.
OBSERVED_PROPERTY: pKi

binder="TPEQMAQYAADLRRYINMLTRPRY [human PP13-36]" readout_number=7.41
binder="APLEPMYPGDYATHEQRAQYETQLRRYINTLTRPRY [rat PP]" readout_number=9.80
